Origin of values: PubChem BioAssay AID463173

- Test system: Wild type
- method.summary: S. aureus survival, RN4220 and DeltatarO strains – OD600, teichoic acid synthesis inhibitors, primary screen (AID 463173)
- stated.conditions: S. aureus RN4220 wild type/DeltatarO growth, OD600, 18 h, active compounds read low, screened at 18.75 µg/mL (by protocol)
Hit rate of the full screen: of about 52,000 compounds, about 1,700 (3.3%) were called active. Many of the other results were omitted from the sample, so actives are more common in it than they were.
measured.property: survival

>>> print(df.to_string())
                                   compound  measured_property          reading
0  CCCOc1ccc(C(=O)Nc2sc3c(c2C(=O)OCC)CCCCC3)cc1           survival   27% (inactive)
1  O=C(NCCc1ccc(F)cc1)C(=O)NCC(c1ccco1)S(=O)(=O)c1cccs1 (stereo not given)           survival   53% (inactive)
2  Cc1ccc(CNC(=O)C(=O)NCC(c2ccco2)S(=O)(=O)c2cccs2)cc1 (stereo not given)           survival   75% (inactive)
3  CNC(=O)c1c(NC(=O)c2ccc(S(=O)(=O)N3CCCC(C)C3)cc2)sc2c1CCC2 (stereo not given)           survival  101% (inactive)

Could you now look at the following compound, please?
Q) State its survival on Wild type: O=C(NCCc1ccccc1)C(=O)NCC(c1ccco1)S(=O)(=O)c1cccs1 (stereo not given)
A) 75% (inactive)

###

Reported survival by item:
- Tested on: Wild type
- method.summary: S. aureus survival, RN4220 and DeltatarO strains – OD600, teichoic acid synthesis inhibitors, primary screen (AID 463173)
- stated.conditions: S. aureus RN4220 wild type/DeltatarO growth, OD600, 18 h, active compounds read low, screened at 18.75 µg/mL (by protocol)
Screen size: about 52,000 compounds; about 1,700 (3.3%) were called active. Only a selection was taken, and actives are over-represented in it overall.

The cases that follow already have their survival on record.
>>> df
                                   compound         reading
0  CC1CCN(C(=O)Cn2cc(SCC(=O)NCc3ccc(F)cc3)c3ccccc32)CC1  89% (inactive)
1  COc1ccc(-c2nc3sc(CCNS(=O)(=O)c4ccccc4)c(C)n3n2)cc1  57% (inactive)
2  COc1cccc2cc(-c3nc4ccc(C)cc4[nH]3)c(=O)oc12  73% (inactive)
3  C=CCc1cccc2cc(-c3nc4ccc(C(=O)O)cc4[nH]3)c(=O)oc12  83% (inactive)
4  CC(=O)c1ccc(S(=O)(=O)Nc2ccc(-c3ccc(N4CCCCCC4)nn3)cc2)cc1  83% (inactive)
5  Cc1c(CCNS(=O)(=O)c2ccccc2)sc2nc(-c3ccc(Cl)cc3)nn12     1% (active)

Q) Requested read-out: survival. Entry: `CCCS(=O)(=O)NCCc1sc2nc(-c3ccc(F)cc3)nn2c1C`
A) 60% (inactive)

Q) What would you report for `Cc1cc2oc(C(=O)Nc3ccc(S(=O)(=O)N4CCCCCC4)cc3)cc(=O)c2cc1C` ?
A) 80% (inactive)

Q) Next compound up: COc1ccccc1CNC(=O)CCC(=O)N1CC2CCCN2c2ccccc21 (stereo not given)
A) 80% (inactive)

Q) Same question for `Cc1ccc2nc(-c3c[nH]c4ccccc34)c(Nc3ccc(F)cc3)n2c1` please.
A) 72% (inactive)
